Consider the following molecules and their measured % de déplacement du ligand marqué readings.
System: récepteurs surrénaliens de l'angiotensine II
Assay: Displacement of radioligand [125I]-SIAII specifically bound to adrenal angiotensin II receptors (rat adrenal homogenate)
Format: binding
Settings: competitor 1E-5 M, 60 min, 25°C, 10 µM
Please append the unit to your numeric answer.

input: Quick one: % de déplacement du ligand marqué for `CCCc1nn(CC(F)(F)F)c(OCC(=O)OC)c1Cc1ccc(NC(=O)c2ccccc2C(=O)O)cc1` ?
output: 94%

Next:
input: Please report the recorded % de déplacement du ligand marqué for `CCCc1nn(C)c(OC(=O)N(CC)CC)c1Cc1ccc(NC(=O)c2ccccc2S(=O)(=O)O)cc1` .
output: 80%

input: Entry `CCCc1nn(C)c(OCC(=O)OCC)c1Cc1ccc(NC(=O)c2ccccc2S(=O)(=O)O)cc1` : reported % de déplacement du ligand marqué = ?
output: 92%

input: Which % de déplacement du ligand marqué is reported for this molecule? `CCCCc1nn(C)c(COC)c1Cc1ccc(-c2ccccc2-c2nnn[nH]2)cc1`
output: 67%

---

Test system: récepteurs surrénaliens de l'angiotensine II
Assay: Displacement of radioligand [125I]-SIAII specifically bound to adrenal angiotensin II receptors (rat adrenal homogenate)
Assay type: binding
Settings: competitor 1E-5 M, 60 min, 25°C, 10 µM
# key: entry, value: % de déplacement du ligand marqué
Write the value in % as a bare number.

Answered examples (5):
input: Please give the measured % de déplacement du ligand marqué for this compound: CCCc1nn(C)c(OCCO)c1Cc1ccc(-c2ccccc2-c2nn[nH]n2)cc1 [Exemple 88]
output: 60

input: Could you tell me which % de déplacement du ligand marqué is on file for CCCc1nn(C)c(OC(=O)N(C)C)c1Cc1ccc(-c2ccccc2-c2nn[nH]n2)cc1 [Exemple 86] ?
output: 58

input: Report % de déplacement du ligand marqué for CCCc1nn(CC(=O)OCC)c(O)c1Cc1ccc(NC(=O)c2c(Cl)ccc(Cl)c2C(=O)O)cc1 [Exemple 41] please.
output: 85

input: Bench note: what % de déplacement du ligand marqué did CCCCc1nn(C)c(OC(=O)N(C)C)c1Cc1ccc(-c2ccccc2-c2nn[nH]n2)cc1 [Exemple 82] show?
output: 71

input: Need % de déplacement du ligand marqué of CCCc1nn(C)c(OCC(=O)OCC)c1Cc1ccc(NC(=O)c2ccccc2C(=O)O)cc1 [Exemple 29] , thanks.
output: 80

Continuing:
input: I'd like to know its % de déplacement du ligand marqué. The compound in question is CCCc1nn(C)c(OC(=O)N(C)C)c1Cc1ccc(NC(=O)c2ccccc2S(=O)(=O)O)cc1 [Exemple 54]
output: 77

input: Please look up its % de déplacement du ligand marqué: CCCCc1nn(C)c(OCCO)c1Cc1ccc(NC(=O)c2ccccc2S(=O)(=O)O)cc1 [Exemple 51]
output: 83

input: Can you look up the measured % de déplacement du ligand marqué of CCCCc1nn(CC(F)(F)F)c(OCC(=O)OCC)c1Cc1ccc(-c2ccccc2-c2nn[nH]n2)cc1 [Exemple 78] for me?
output: 73

input: For the compound CCCCc1nn(C)c(OCC(=O)N2CCOCC2)c1Cc1ccc(NC(=O)c2ccccc2NS(=O)(=O)C(F)(F)F)cc1 [Exemple 130] , what % de déplacement du ligand marqué is on record?
output: 74

input: Please give the measured % de déplacement du ligand marqué for this compound: CCCCc1nn(CC(F)(F)F)c(OC(=O)N(C)C)c1Cc1ccc(-c2ccccc2-c2nn[nH]n2)cc1 [Exemple 80]
output: 69

input: Quick check: % de déplacement du ligand marqué of CCCCc1nn(C)c(OCC(=O)N2CCOCC2)c1Cc1ccc(NC(=O)c2ccccc2S(=O)(=O)O)cc1 [Exemple 48] ?
output: 80

input: Field request: % de déplacement du ligand marqué | item: CCCc1nn(C)c(OCC(=O)OCC)c1Cc1ccc(-c2ccsc2-c2nnn[nH]2)cc1 [Exemple 141]
output: 64

---

System: récepteurs surrénaliens de l'angiotensine II
Assay: Displacement of radioligand [125I]-SIAII specifically bound to adrenal angiotensin II receptors (rat adrenal homogenate)
Type: binding
Conditions: competitor 1E-5 M, 60 min, 25°C, 10 µM
measured_quantity: % de déplacement du ligand marqué (%)
Hi! Could you send only the number? It should be in %, unit omitted.

Example entries begin here.
input: Which % de déplacement du ligand marqué is reported with récepteurs surrénaliens de l'angiotensine II for this entry: CCCc1nn(C)c(OCC(=O)OC)c1Cc1ccc(NC(=O)c2ccccc2C(=O)O)cc1 [Exemple 28] ?
output: 82

input: Quick check: % de déplacement du ligand marqué on récepteurs surrénaliens de l'angiotensine II, item CCCc1n[nH]c(CO)c1Cc1ccc(NC(=O)c2ccccc2S(=O)(=O)O)cc1 [Exemple 116] ?
output: 82

input: Reported % de déplacement du ligand marqué for récepteurs surrénaliens de l'angiotensine II, given CCCCc1nn(C)c(OCC(=O)OCC)c1Cc1ccc(-c2ccccc2-c2nn[nH]n2)cc1 [Exemple 90] ?
output: 64

***
input: # query: % de déplacement du ligand marqué | item CCCc1nn(C)c(OCC(=O)N2CCN(c3ccccc3OC)CC2)c1Cc1ccc(NC(=O)c2ccccc2S(=O)(=O)O)cc1 [Exemple 66] | system: récepteurs surrénaliens de l'angiotensine II
output: 92

input: Which measured % de déplacement du ligand marqué belongs to CCCc1nn(C)c(COC)c1Cc1ccc(NC(=O)c2ccccc2S(=O)(=O)O)cc1 [Exemple 107] , tested on récepteurs surrénaliens de l'angiotensine II?
output: 83

input: API: value(readout=% de déplacement du ligand marqué, system=récepteurs surrénaliens de l'angiotensine II) for record CCCCc1nn(C)c(O)c1Cc1ccc(-c2ccccc2C(=O)O)cc1 [Exemple 36]
output: 62

input: Hello, I am looking for reported % de déplacement du ligand marqué with récepteurs surrénaliens de l'angiotensine II for CCCc1nn(C)c(O)c1Cc1ccc(-c2ccccc2-c2nnn[nH]2)cc1 [Exemple 71] . Could you help?
output: 58
